FYI, the data here is from ChEMBL document CHEMBL5303764.

# study.system: voltage-gated Na+ channel (site 2) (Rattus norvegicus, UniProt F1LQQ7+O08562+O88420+O88457+P04774+P04775+P08104+P15389+P15390+Q62968)
# assay.summary: NA+/SITE2/R Eurofins SafetyScreen44 (BI)
# Format: protein assay
# recorded.conditions: rat brain, probe [3H]batrachotoxinin, compound concentration 10 uM, read-out: % Ctrl
observable: activity at 10 µM

CNC(=O)COc1cc2cc(Nc3nc(N4CCC(C(=O)N(C)C)CC4)ncc3Cl)cc(OC)c2n(C)c1=O: 84% (not active)

----------
# study.system: Muscarinic acetylcholine receptor M3 (Homo sapiens, UniProt P20309)
# Sequence (P20309 whole entry): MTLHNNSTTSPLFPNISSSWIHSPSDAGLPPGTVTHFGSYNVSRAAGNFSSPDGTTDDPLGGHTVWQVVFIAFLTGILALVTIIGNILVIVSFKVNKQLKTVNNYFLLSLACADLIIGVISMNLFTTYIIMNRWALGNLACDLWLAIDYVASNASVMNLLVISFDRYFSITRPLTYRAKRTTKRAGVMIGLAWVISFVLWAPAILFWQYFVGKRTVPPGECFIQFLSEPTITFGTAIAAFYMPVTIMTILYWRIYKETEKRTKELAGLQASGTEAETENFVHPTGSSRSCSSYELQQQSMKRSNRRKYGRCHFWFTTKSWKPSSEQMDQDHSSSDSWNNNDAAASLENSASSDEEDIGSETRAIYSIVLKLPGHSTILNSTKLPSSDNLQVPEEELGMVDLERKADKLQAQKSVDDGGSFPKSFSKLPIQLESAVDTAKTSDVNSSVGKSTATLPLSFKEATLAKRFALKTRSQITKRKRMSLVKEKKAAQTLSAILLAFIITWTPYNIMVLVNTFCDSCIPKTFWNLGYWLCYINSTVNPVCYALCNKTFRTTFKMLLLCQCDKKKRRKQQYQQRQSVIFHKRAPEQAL
# assay.summary: GPCRScan assay: inhibition of M3
# Design: radioligand conc. used [nm] 0.3 – 1.0, parental cells stable CHO
observable: Ki

CNC(=O)COc1cc2cc(Nc3nc(N4CCC(C(=O)N(C)C)CC4)ncc3Cl)cc(OC)c2n(C)c1=O: > 10 µM

----------
# study.system: L-type Ca2+ channel (dihydropyridine site), Cav1.2 alpha-1C (Rattus norvegicus)
# Sequence (P22002 whole entry): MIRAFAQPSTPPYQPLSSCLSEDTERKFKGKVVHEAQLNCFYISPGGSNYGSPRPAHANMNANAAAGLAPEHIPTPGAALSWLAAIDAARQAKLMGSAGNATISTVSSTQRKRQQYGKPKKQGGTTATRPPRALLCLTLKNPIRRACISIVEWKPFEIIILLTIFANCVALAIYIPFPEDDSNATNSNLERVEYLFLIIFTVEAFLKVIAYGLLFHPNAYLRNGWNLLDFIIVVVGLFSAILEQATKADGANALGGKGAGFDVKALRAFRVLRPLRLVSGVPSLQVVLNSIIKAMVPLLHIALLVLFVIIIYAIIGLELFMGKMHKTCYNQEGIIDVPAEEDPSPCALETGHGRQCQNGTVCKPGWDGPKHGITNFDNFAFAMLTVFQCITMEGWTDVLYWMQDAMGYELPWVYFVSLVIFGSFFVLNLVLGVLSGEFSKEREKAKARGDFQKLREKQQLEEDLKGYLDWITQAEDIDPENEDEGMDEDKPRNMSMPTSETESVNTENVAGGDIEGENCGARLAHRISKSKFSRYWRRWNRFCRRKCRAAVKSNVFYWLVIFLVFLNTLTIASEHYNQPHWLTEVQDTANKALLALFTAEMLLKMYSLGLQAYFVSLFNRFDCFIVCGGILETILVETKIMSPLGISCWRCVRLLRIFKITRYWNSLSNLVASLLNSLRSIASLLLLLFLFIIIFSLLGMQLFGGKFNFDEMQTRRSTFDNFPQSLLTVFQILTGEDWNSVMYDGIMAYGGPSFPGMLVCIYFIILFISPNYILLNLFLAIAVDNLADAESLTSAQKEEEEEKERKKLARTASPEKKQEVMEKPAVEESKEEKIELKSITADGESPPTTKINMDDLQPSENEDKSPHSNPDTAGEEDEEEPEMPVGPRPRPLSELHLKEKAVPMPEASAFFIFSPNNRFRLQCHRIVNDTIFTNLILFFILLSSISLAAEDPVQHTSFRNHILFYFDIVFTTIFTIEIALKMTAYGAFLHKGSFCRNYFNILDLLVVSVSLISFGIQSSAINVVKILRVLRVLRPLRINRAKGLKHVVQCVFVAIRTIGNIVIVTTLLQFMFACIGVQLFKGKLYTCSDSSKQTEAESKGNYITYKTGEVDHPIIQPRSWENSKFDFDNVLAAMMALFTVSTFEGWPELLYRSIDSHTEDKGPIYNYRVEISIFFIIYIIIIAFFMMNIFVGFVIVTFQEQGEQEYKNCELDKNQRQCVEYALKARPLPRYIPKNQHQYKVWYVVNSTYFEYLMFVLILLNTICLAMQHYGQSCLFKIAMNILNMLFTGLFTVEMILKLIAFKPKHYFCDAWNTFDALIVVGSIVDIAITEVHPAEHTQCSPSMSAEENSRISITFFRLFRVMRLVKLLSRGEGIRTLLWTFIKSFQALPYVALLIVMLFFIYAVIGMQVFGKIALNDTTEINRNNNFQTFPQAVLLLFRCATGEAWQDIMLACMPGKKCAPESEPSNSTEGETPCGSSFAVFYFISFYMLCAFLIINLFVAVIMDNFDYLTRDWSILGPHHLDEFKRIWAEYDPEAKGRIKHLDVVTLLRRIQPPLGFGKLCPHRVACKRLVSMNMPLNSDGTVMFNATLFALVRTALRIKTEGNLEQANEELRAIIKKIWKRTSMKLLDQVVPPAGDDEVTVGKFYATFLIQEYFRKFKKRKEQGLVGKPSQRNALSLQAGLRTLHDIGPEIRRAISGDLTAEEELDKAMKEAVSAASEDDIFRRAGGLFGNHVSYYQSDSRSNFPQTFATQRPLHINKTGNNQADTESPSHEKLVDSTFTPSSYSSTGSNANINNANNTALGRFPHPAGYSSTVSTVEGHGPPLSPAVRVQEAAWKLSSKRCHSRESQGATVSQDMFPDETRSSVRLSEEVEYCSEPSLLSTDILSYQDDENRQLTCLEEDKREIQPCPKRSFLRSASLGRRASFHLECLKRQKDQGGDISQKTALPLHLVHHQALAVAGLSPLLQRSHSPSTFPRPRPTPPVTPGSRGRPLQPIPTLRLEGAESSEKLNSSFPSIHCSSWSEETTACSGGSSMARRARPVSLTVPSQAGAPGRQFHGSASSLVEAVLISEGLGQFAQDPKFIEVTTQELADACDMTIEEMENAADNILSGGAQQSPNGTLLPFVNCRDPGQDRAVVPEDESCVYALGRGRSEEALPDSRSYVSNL
# assay.summary: CA+/DHPSI/R Eurofins SafetyScreen44 (BI)
# recorded.conditions: rat brain, probe [3H](+)PN200-110, compound concentration 10 uM, read-out: % Ctrl
observable: activity at 10 µM

CNC(=O)COc1cc2cc(Nc3nc(N4CCC(C(=O)N(C)C)CC4)ncc3Cl)cc(OC)c2n(C)c1=O: 95% (not active)

----------
# study.system: MAO-A (amine oxidase [flavin-containing] A) (Rattus norvegicus)
# Sequence (P21396 whole entry): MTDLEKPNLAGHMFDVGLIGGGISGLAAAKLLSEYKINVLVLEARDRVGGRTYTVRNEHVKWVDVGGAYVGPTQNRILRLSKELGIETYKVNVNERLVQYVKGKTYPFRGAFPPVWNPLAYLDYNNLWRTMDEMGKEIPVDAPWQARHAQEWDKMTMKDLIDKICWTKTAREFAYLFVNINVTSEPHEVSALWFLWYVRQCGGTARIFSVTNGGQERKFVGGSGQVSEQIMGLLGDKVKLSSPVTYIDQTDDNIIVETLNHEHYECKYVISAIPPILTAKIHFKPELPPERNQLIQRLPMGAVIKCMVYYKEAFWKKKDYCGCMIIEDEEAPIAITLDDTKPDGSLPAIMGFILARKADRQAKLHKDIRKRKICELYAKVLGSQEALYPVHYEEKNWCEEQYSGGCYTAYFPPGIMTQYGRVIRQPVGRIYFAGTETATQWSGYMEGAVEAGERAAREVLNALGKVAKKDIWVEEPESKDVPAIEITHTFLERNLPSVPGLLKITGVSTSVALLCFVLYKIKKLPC
# assay.summary: MAO-A_ANTAG Eurofins SafetyScreen44 (BI)
# Parameters: scale not given: the % may be the effect or the level left
# recorded.conditions: compound concentration 10 uM, read-out: % Ctrl
observable: activity at 10 µM

CNC(=O)COc1cc2cc(Nc3nc(N4CCC(C(=O)N(C)C)CC4)ncc3Cl)cc(OC)c2n(C)c1=O: 103% (not active)

----------
# study.system: hERG (KCNH2) (Homo sapiens, UniProt Q12809)
# Sequence (Q12809 whole entry): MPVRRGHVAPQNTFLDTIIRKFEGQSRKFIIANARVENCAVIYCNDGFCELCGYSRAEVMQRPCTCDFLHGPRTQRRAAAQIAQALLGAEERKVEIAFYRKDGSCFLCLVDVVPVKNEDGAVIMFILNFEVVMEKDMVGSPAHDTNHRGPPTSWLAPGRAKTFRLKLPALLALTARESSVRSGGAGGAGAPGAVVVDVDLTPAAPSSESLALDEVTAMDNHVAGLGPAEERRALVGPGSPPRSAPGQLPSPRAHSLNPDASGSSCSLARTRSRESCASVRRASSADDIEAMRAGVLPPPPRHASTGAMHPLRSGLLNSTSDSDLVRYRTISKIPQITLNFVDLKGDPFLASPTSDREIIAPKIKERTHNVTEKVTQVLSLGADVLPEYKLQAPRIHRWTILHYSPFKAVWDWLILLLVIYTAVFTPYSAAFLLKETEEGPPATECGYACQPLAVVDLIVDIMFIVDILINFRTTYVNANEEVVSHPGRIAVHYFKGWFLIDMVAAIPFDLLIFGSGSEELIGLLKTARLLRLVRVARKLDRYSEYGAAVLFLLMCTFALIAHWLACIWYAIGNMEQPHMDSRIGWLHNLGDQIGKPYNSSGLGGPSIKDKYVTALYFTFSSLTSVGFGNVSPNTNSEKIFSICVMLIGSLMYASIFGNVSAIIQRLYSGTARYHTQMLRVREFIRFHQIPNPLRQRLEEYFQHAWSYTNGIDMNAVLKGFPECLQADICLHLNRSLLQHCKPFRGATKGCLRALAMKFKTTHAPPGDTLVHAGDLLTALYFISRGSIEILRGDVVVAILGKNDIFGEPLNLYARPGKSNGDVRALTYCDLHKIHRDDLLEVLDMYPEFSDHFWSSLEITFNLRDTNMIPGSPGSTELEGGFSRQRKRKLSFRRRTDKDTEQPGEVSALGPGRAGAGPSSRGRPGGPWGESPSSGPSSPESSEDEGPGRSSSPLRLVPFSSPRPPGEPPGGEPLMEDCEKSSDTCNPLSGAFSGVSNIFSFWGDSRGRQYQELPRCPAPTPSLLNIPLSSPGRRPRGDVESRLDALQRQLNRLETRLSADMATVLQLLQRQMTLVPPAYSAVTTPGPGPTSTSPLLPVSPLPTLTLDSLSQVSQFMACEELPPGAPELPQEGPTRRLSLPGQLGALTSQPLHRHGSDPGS
# assay.summary: HERG_DOFETILIDE Eurofins SafetyScreen44 (BI)
# recorded.conditions: probe [3H]dofetilide, compound concentration 10 uM, read-out: % Ctrl
observable: activity at 10 µM

CNC(=O)COc1cc2cc(Nc3nc(N4CCC(C(=O)N(C)C)CC4)ncc3Cl)cc(OC)c2n(C)c1=O: 92% (not active)
